Test: Cmax in cynomolgus monkey at 1 mg/kg, po measured upto 72 hrs by LC-MS/MS analysis
Type: ADME, organism-based, Macaca fascicularis
Set-up: route oral, dose 1 mg/kg, time <=72
Settings: in vivo
metric_name: Cmax (nM)
Give bare numbers, in nM.

For this compound ( `COc1ccc(C[C@@H]2NC(=O)[C@H]([C@@H](C)O)NC(=O)[C@@H]3[C@@H]4CCN3C(=O)[C@@H]3Cc5cn(c6ccc(F)cc56)Cc5cn(nn5)-c5cc(cc(c5)CSCCC(=O)N[C@@H](CNC(=O)CCOCCOCC[N+](C)(C)C)C(=O)N[C@H](C)C(=O)N[C@@H](Cc5cccc(c5)C/C=C/CO4)C(=O)N3)CSCCNC(=O)[C@]3(C)CCCN3C2=O)cc1` ), measured Cmax is 9.8

====

Kindly supply the reported %AUCextra values for the records listed here.
Experiment: AUC extrapolated in Wistar Han rat at 5 mg/kg, id measured upto 24 hrs by LC-MS/MS analysis
Format: ADME, organism-based
Conditions: in vivo, other
Give bare numbers, in %.

Please review the entries below; each comes with its answer.
[
  {
    "structure_string": "COc1ccc(C[C@@H]2NC(=O)[C@H]([C@@H](C)O)NC(=O)[C@@H]3[C@@H]4CCN3C(=O)[C@@H]3Cc5cn(c6ccc(F)cc56)Cc5cn(nn5)-c5cc(cc(c5)CSCCC(=O)N[C@@H](C)C(=O)N[C@H](CNC(=O)CCOCCOCC[N+](C)(C)C)C(=O)N[C@@H](Cc5cccc(c5)C/C=C/CO4)C(=O)N3)CSCCNC(=O)[C@]3(C)CCCN3C2=O)cc1",
    "%AUCextra [%]": 3
  },
  {
    "structure_string": "COc1ccc(C[C@@H]2NC(=O)[C@H]([C@@H](C)O)NC(=O)[C@@H]3[C@@H]4CCN3C(=O)[C@@H]3Cc5cn(c6ccc(F)cc56)Cc5cn(nn5)-c5cc(cc(c5)CSCCC(=O)N[C@@H](CN)C(=O)N[C@H](C)C(=O)N[C@@H](Cc5cccc(c5)C/C=C/CO4)C(=O)N3)CSCCNC(=O)[C@]3(C)CCCN3C2=O)cc1",
    "%AUCextra [%]": 23.6
  },
  {
    "structure_string": "COc1ccc(C[C@@H]2NC(=O)[C@H]([C@@H](C)O)NC(=O)[C@@H]3[C@@H]4CCN3C(=O)[C@@H]3Cc5cn(c6ccc(F)cc56)Cc5cn(nn5)-c5cc(cc(c5)CSCCC(=O)N[C@@H](CNC(=O)CCOCCOCC[N+](C)(C)C)C(=O)N[C@H](C)C(=O)N[C@@H](Cc5cccc(c5)C/C=C/CO4)C(=O)N3)CSCCNC(=O)[C@]3(C)CCCN3C2=O)cc1",
    "%AUCextra [%]": 3
  }
]

Consider the record given below.
So, `COc1ccc(C[C@@H]2NC(=O)[C@H]([C@@H](C)O)NC(=O)[C@@H]3[C@@H]4CCN3C(=O)[C@@H]3Cc5cn(c6ccc(F)cc56)Cc5cn(nn5)-c5cc(cc(c5)CSCCC(=O)N[C@@H](CNC(=O)CCOCCOCCN)C(=O)N[C@H](C)C(=O)N[C@@H](Cc5cccc(c5)C/C=C/CO4)C(=O)N3)CSCCNC(=O)[C@]3(C)CCCN3C2=O)cc1` ? Its %AUCextra was 19.6

====

Test: Tmax in Wistar Han rat at 5 mg/kg, id measured upto 24 hrs by LC-MS/MS analysis
Type: ADME, organism-based
Conditions: in vivo
Could you please report measured Tmax for the items listed next?
Answers are plain numbers, in min.

Known results for compounds:
[
  {
    "structure_string": "COc1ccc(C[C@@H]2NC(=O)[C@H]([C@@H](C)O)NC(=O)[C@@H]3[C@@H]4CCN3C(=O)[C@@H]3Cc5cn(c6ccc(F)cc56)Cc5cn(nn5)-c5cc(cc(c5)CSCCC(=O)N[C@@H](CNC(=O)CCOCCOCCN)C(=O)N[C@H](C)C(=O)N[C@@H](Cc5cccc(c5)C/C=C/CO4)C(=O)N3)CSCCNC(=O)[C@]3(C)CCCN3C2=O)cc1",
    "reported_value": 0
  },
  {
    "structure_string": "COc1ccc(C[C@@H]2NC(=O)[C@H]([C@@H](C)O)NC(=O)[C@@H]3[C@@H]4CCN3C(=O)[C@@H]3Cc5cn(c6ccc(F)cc56)Cc5cn(nn5)-c5cc(cc(c5)CSCCC(=O)N[C@@H](CNC(=O)CCOCCOCC[N+](C)(C)C)C(=O)N[C@H](C)C(=O)N[C@@H](Cc5cccc(c5)C/C=C/CO4)C(=O)N3)CSCCNC(=O)[C@]3(C)CCCN3C2=O)cc1",
    "reported_value": 30
  },
  {
    "structure_string": "COc1ccc(C[C@@H]2NC(=O)[C@H]([C@@H](C)O)NC(=O)[C@@H]3[C@@H]4CCN3C(=O)[C@@H]3Cc5cn(c6ccc(F)cc56)Cc5cn(nn5)-c5cc(cc(c5)CSCCC(=O)N[C@@H](CN)C(=O)N[C@H](C)C(=O)N[C@@H](Cc5cccc(c5)C/C=C/CO4)C(=O)N3)CSCCNC(=O)[C@]3(C)CCCN3C2=O)cc1",
    "reported_value": 15
  }
]

--- query ---
Tmax reported for this compound `COc1ccc(C[C@@H]2NC(=O)[C@H]([C@@H](C)O)NC(=O)[C@@H]3[C@@H]4CCN3C(=O)[C@@H]3Cc5cn(c6ccc(F)cc56)Cc5cn(nn5)-c5cc(cc(c5)CSCCC(=O)N[C@@H](C)C(=O)N[C@H](CNC(=O)CCOCCOCC[N+](C)(C)C)C(=O)N[C@@H](Cc5cccc(c5)C/C=C/CO4)C(=O)N3)CSCCNC(=O)[C@]3(C)CCCN3C2=O)cc1` : 18

====

Assay: Tmax in cynomolgus monkey at 1 mg/kg, po measured upto 72 hrs by LC-MS/MS analysis
Format: ADME, organism-based, Macaca fascicularis
Settings: in vivo
metric_name: Tmax (h)
One number for each entry, in h.

Entry under test: `COc1ccc(C[C@@H]2NC(=O)[C@H]([C@@H](C)O)NC(=O)[C@@H]3[C@@H]4CCN3C(=O)[C@@H]3Cc5cn(c6ccc(F)cc56)Cc5cn(nn5)-c5cc(cc(c5)CSCCC(=O)N[C@@H](CNC(=O)CCOCCOCC[N+](C)(C)C)C(=O)N[C@H](C)C(=O)N[C@@H](Cc5cccc(c5)C/C=C/CO4)C(=O)N3)CSCCNC(=O)[C@]3(C)CCCN3C2=O)cc1` . Its Tmax was 2

====

Molecular target: Proprotein convertase subtilisin/kexin type 9 (Homo sapiens)
Sequence (Q8NBP7 31-152 limits assumed): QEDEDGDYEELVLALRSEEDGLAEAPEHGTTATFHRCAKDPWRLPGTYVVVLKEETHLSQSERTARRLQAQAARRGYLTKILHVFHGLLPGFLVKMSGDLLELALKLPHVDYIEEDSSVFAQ
Sequence (Q8NBP7 153-692 limits assumed): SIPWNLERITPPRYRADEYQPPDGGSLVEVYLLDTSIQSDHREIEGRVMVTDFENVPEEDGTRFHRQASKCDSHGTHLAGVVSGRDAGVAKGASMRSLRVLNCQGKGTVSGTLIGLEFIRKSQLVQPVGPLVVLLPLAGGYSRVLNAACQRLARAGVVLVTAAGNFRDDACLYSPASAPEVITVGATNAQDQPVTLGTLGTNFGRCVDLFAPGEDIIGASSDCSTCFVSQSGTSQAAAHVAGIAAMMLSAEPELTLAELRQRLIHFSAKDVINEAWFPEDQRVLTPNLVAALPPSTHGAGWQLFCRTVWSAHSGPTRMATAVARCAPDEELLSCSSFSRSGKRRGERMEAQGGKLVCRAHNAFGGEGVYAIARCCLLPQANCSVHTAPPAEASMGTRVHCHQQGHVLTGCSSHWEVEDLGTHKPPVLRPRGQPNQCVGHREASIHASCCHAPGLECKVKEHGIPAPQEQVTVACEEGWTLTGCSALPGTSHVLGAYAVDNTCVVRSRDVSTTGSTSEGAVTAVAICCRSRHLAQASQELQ
Assay: Inhibition of human PCSK9 using Alexa Fluor […] as substrate incubated for 2 hrs by FRET plus assay
Kindly state pKi for each of the entries shown.
One number for each entry, as −log10 of the molar value.

Study these solved cases before continuing.
[
  {
    "structure_string": "COc1ccc(C[C@@H]2NC(=O)[C@H]([C@@H](C)O)NC(=O)[C@@H]3[C@@H]4CCN3C(=O)[C@H](Cc3c[nH]c5ccc(F)cc35)NC(=O)[C@H](Cc3cccc(c3)C/C=C/CO4)NC(=O)[C@@H](C)NC(=O)[C@H](C)NC(=O)CCSCc3cccc(c3)CSCCNC(=O)[C@]3(C)CCCN3C2=O)cc1",
    "pKi": 9.60
  },
  {
    "structure_string": "COc1ccc(C[C@@H]2NC(=O)[C@H]([C@@H](C)O)NC(=O)[C@@H]3[C@@H]4CCN3C(=O)[C@@H]3Cc5cn(c6ccc(F)cc56)Cc5cn(nn5)-c5cc(cc(c5)CSCCC(=O)N[C@@H](CN)C(=O)N[C@H](C)C(=O)N[C@@H](Cc5cccc(c5)C/C=C\\CO4)C(=O)N3)CSCCNC(=O)[C@]3(C)CCCN3C2=O)cc1",
    "pKi": 10.43
  },
  {
    "structure_string": "COc1ccc(C[C@@H]2NC(=O)[C@H]([C@@H](C)OC)NC(=O)[C@@H]3[C@@H]4CCN3C(=O)[C@H](Cc3c[nH]c5ccc(F)cc35)NC(=O)[C@H](Cc3cccc(c3)C/C=C\\CO4)NC(=O)[C@@H](CN)NC(=O)[C@H](C)NC(=O)CCSCc3cccc(c3)CSCCNC(=O)[C@]3(C)CCCN3C2=O)cc1",
    "pKi": 8.65
  },
  {
    "structure_string": "COc1ccc(C[C@@H]2NC(=O)[C@H]([C@H](C)OC)NC(=O)[C@@H]3[C@@H]4CCN3C(=O)[C@H](Cc3c[nH]c5ccc(F)cc35)NC(=O)[C@H](Cc3cccc(c3)C/C=C/CO4)NC(=O)[C@H](C)NC(=O)[C@H](CN)NC(=O)CCSCc3cccc(c3)CSCCNC(=O)[C@]3(C)CCCN3C2=O)cc1",
    "pKi": 9.64
  }
]

Alright, here's another compound for you.
# value of pKi, Proprotein convertase subtilisin/kexin type 9 (Homo sapiens), item `COc1ccc(C[C@@H]2NC(=O)[C@H]([C@@H](C)OC)NC(=O)[C@@H]3[C@@H]4CCN3C(=O)[C@H](Cc3c[nH]c5ccc(F)cc35)NC(=O)[C@H](Cc3cccc(c3)C/C=C/CO4)NC(=O)[C@@H](CN)NC(=O)[C@H](C)NC(=O)CCSCc3cccc(c3)CSCCNC(=O)[C@]3(C)CCCN3C2=O)cc1` = 9.80
